These measurements were taken from patent US20150344540A1.

Exercise: state measured CRE luciferase EC50, 1% HSA for each of the binders provided.
system: human GLP-1 receptor (human, UniProt P43220)
method summary: cell-based or functional assay
Where no end group is shown, it is not given here. [ ]: non-standard residue; d: D form. Aib = CC(C)(N)C(=O)O

Enquiry: Retrieve CRE luciferase EC50, 1% HSA measured for HGEGTFTSDVSSYLEGEAVKEFIAWLVEKVKEFL-NH2 [[Gly8,Glu23,Val25,Glu34,Lys35,Val36,Lys37]-GLP-1-(7-37)-peptidyl-Glu-Phe-Leu amide] and print it.
Return: 1.38 nM

Enquiry: Provide one value: measured CRE luciferase EC50, 1% HSA of HAEGTFTSDVSSYLEGQKAKEFIAWLVEGVKEFL-NH2 [[Lys24,Glu34,Val36,Lys37]-GLP-1-(7-37)-peptidyl-Glu-Phe-Leu amide]
Return: 0.112 nM

Enquiry: Specify reported CRE luciferase EC50, 1% HSA for the binder shown: HAEGTFTSDVSSYLEGQAAKEFIAWLVEKVKEHL-NH2 [[Glu34,Lys35,Val36,Lys37]-GLP-1-(7-37)-peptidyl-Glu-His-Leu amide]
Return: 0.01 nM

Enquiry: Give me measured CRE luciferase EC50, 1% HSA, please, for this binder: HAEGTFTSDVSSYLEGQAAKEFIAWLVEKVKEFLE-NH2 [[Glu34,Lys35,Val36,Lys37]-GLP-1-(7-37)-peptidyl-Glu-Phe-Leu-Glu amide]
Return: 0.028 nM

Enquiry: # return recorded CRE luciferase EC50, 1% HSA for input HADGTLTSDISSYLEGEAVKEFIAWLVEK[Aib]KEFL-NH2 [[Asp9,Leu12,Ile16,Glu23,Val25,Glu34,Lys35,Aib36,Lys37]-GLP-1-(7-37)-peptidyl-Glu-Phe-Leu amide]
Return: 0.062 nM

Enquiry: Tell me measured CRE luciferase EC50, 1% HSA for H[Aib]EGTFTSDVSSYLEEEAVKEFIAWLVEKVKEF-NH2 [[Aib8,Glu22,Glu23,Val25,Glu34,Lys35,Val36,Lys37]-GLP-1-(7-37)-peptidyl-Glu-Phe amide] please.
Return: 0.012 nM
